Reference for the values: PubChem BioAssay AID2113

assayed-system: Lysosomal alpha-glucosidase (Homo sapiens) (UniProt P10253)
experiment-description: Confirmation of Inhibitors and Activators of Human alpha-Glucosidase From Spleen Homogenate
study-conditions: alpha-glucosidase enzyme activity; series mostly up to 60.5 µM
Inconclusive results are not listed. The source made the active and inactive calls. Calls follow the shape of the dose curve; as a rule, active = well fitted curve in either direction with a large enough effect; inconclusive = small, poorly fitted or top-dose-only effect; inactive = no such curve, though single readings can be large or run the other way.
Outcome codes: active, inactive

compound: Cc1cccc(-n2c(N)cc(=O)[nH]c2=S)c1C
class: inactive
--
compound: COC(=O)c1ccc(C(=O)OC)c(NC(=S)N2CCOCC2)c1
class: inactive
--
compound: Cc1ccc(CCNC(=O)CNC(=S)N(Cc2ccccc2)Cc2cccnc2)cc1
class: inactive
--
compound: N#C/C(=C\c1cc(O)c(O)c(O)c1)C(N)=O
class: inactive
--
compound: COc1ccc(/C=C/c2nnc(NC(C)=O)s2)cc1
class: inactive
--
compound: C=CCn1c2ccccc2c2nnc(SCC(=O)NC(C(=O)OC)C(C)C)nc21 (stereo unspecified)
class: inactive
--
compound: CSc1ccccc1NC(=O)CN(C)CC(=O)NCc1ccccc1
class: inactive
--
compound: COc1cccc(CCn2c(N)cc(=O)[nH]c2=S)c1OC
class: inactive
--
compound: CCCN1CNc2c(c(=O)[nH]c(=S)n2CCc2cccs2)C1
class: active
--
compound: CC1CCc2c(nc3ncnn3c2N2CCN(c3ccccc3F)CC2)C1 (stereo unspecified)
class: inactive
--
compound: CCCN1CNc2c(c(=O)[nH]c(=S)n2CCc2cc(OC)cc(OC)c2)C1
class: active

###

assayed-system: Lysosomal alpha-glucosidase (Homo sapiens)
experiment-description: Confirmation of Inhibitors and Activators of Human alpha-Glucosidase From Spleen Homogenate
study-conditions: alpha-glucosidase enzyme activity; series mostly up to 60.5 µM
Inconclusive results are not listed. Activity calls are given as the source filed them. The call rests on the fitted dose curve; in most records, active means well fitted curve in either direction with a large enough effect; inconclusive means small, poorly fitted or top-dose-only effect; inactive means no such curve, though single readings can be large or run the other way.
Classes used: TRUE = active, FALSE = inactive

compound: O=C(c1ccc2ccccc2c1)N1CCN(S(=O)(=O)c2ccccc2)CC1
class: FALSE

compound: Cc1ccc(-c2nc(-c3cc4cc(Cl)ccc4oc3=O)sc2C)cc1
class: FALSE

compound: Cc1nc(-n2nnc(CO)c2CO)nc2c1CCC2
class: FALSE

compound: CN(C)C=Nc1nc2ccccc2nc1N1CCCC1
class: FALSE

compound: CC1(CCc2ccc3c(c2)OCO3)NC(=O)c2ccccc2N1 (stereo not drawn)
class: FALSE

compound: Cc1cc(C)c(C(=O)Cn2cnc3cc([N+](=O)[O-])ccc3c2=O)cc1C
class: FALSE

compound: Cc1sc(-c2cc3cc(Cl)ccc3oc2=O)nc1-c1ccccc1
class: FALSE

compound: NC(=S)NN=C1c2cc(S(=O)(=O)N3CCOCC3)ccc2-c2ccc(S(=O)(=O)N3CCOCC3)cc21
class: FALSE

compound: CC(=O)N1CCN(c2ccc(NS(=O)(=O)c3ccc4c(c3)CC(=O)N4)cc2)CC1
class: FALSE

compound: N#Cc1c(-c2ccccc2)nc(SCc2nc(N)nc(N3CCCCC3)n2)[nH]c1=O
class: FALSE

compound: CCCN1CNc2c(c(=O)[nH]c(=S)n2CCc2c(Cl)cccc2Cl)C1
class: TRUE

compound: c1ccc(-n2c(-c3cccs3)nc3nc4ccccc4nc32)cc1
class: FALSE

compound: C(=C\c1nccc2c1[nH]c1ccccc12)/c1ccc2c(c1)OCO2
class: FALSE

compound: O=S(=O)(c1ccc(-c2ccccc2)cc1)N1CCOCC1
class: FALSE

compound: CCCN1CNc2c(c(=O)[nH]c(=S)n2CCc2cccc(OC)c2OC)C1
class: TRUE

compound: COc1ccc(CCn2c3c(c(=O)[nH]c2=O)C(NC(=O)c2cccs2)(C(F)(F)F)C(=O)N3)cc1OC (stereo not drawn)
class: FALSE

compound: COc1ccc(-c2cc(=O)c(C(=O)c3ccc(C)cc3)n[nH]2)cc1
class: FALSE

compound: Cc1nnc(SCC(=O)Nc2ccc3c(c2)COC3=O)n1-c1ccccc1
class: FALSE

compound: CCCC1(C)Nc2ccccc2-c2nc3ccccc3n21 (stereo not drawn)
class: FALSE

compound: CCC(=O)N1CCN(c2ccc(Cl)cc2NC(=O)c2ccc(N3CCCC3)c([N+](=O)[O-])c2)CC1
class: FALSE

compound: Cc1ccc(S(=O)(=O)N(C)C)cc1NC(=O)COC(=O)Cc1ccc(Br)cc1
class: FALSE

compound: CCCN1CNc2c(c(=O)[nH]c(=S)n2CCc2ccccc2)C1
class: FALSE

compound: COc1cc(/C=C/c2ccc3ccccc3n2)cc(OC)c1O
class: FALSE

compound: CC(=O)c1ccc(N2CCN(S(=O)(=O)c3ccc4[nH]c(=O)[nH]c4c3)CC2)cc1
class: FALSE

compound: C=CCCCCCCCCCCCc1ccco1
class: FALSE

compound: O=S(=O)(c1ccccc1Cl)N1CCOCC1
class: FALSE

compound: N=c1sccn1CC(=O)Nc1cc(S(=O)(=O)N2CCCC2)ccc1Cl
class: FALSE

compound: O=C(Nc1ccccc1)C1CCN(S(=O)(=O)c2ccccc2)CC1
class: FALSE

compound: CC(=O)c1ccc(N2CCN(C(=O)c3ccc4c(c3)CCC(=O)N4)CC2)cc1
class: FALSE

compound: COc1ccc(/C=C/c2nnc(NC(=O)COc3ccc(Cl)cc3)s2)cc1
class: FALSE

compound: COc1ccc(S(=O)(=O)N2CCN(C(=O)COc3ccc4c(C)cc(=O)oc4c3)CC2)cc1
class: FALSE

compound: C[C@@H](NC(=O)c1nc[nH]c1C(=O)N[C@@H](Cc1ccccc1)C(=O)OC(C)(C)C)c1ccccc1
class: FALSE

compound: CC(C)NCC(O)COc1cccc2[nH]ccc12 (stereo not drawn)
class: FALSE

compound: Cc1cccc(S(=O)(=O)c2c(N)n(-c3ccccc3)c3nc4ccccc4nc23)c1
class: FALSE

compound: CC(=O)Oc1ccc2cc(-c3nc(-c4ccccc4)c(C)s3)c(=O)oc2c1
class: FALSE

compound: N#Cc1ccc(S(=O)(=O)N2CCOCC2)cc1
class: FALSE

compound: O=c1oc2cc(O)ccc2cc1-c1nc2c(s1)CCc1ccccc1-2
class: TRUE

compound: CCc1sc(-c2cc3ccccc3oc2=O)nc1-c1ccccc1
class: FALSE

compound: CCCN1CNc2c(c(=O)[nH]c(=S)n2CCc2cccc(C)c2)C1
class: TRUE

compound: CCCN1CNc2c(c(=O)[nH]c(=S)n2CCc2ccc(OC)cc2)C1
class: TRUE

compound: O=C1CC(N2CCN(c3cccc(C(F)(F)F)c3)CC2)C(=O)N1c1ccc(F)cc1 (stereo not drawn)
class: FALSE

compound: O=C(/C=C/c1ccc(O)c(O)c1)c1ccc(O[C@@H]2O[C@H](CO)[C@@H](O)[C@H](O)[C@H]2O)c(O)c1O
class: FALSE

compound: CN(C)N=C1c2cc(S(=O)(=O)N3CCOCC3)ccc2-c2ccc(S(=O)(=O)N3CCOCC3)cc21
class: FALSE
